Biological target: Toll-like receptor 8 (Homo sapiens, UniProt Q9NR97)
Sequence (Q9NR97 whole entry): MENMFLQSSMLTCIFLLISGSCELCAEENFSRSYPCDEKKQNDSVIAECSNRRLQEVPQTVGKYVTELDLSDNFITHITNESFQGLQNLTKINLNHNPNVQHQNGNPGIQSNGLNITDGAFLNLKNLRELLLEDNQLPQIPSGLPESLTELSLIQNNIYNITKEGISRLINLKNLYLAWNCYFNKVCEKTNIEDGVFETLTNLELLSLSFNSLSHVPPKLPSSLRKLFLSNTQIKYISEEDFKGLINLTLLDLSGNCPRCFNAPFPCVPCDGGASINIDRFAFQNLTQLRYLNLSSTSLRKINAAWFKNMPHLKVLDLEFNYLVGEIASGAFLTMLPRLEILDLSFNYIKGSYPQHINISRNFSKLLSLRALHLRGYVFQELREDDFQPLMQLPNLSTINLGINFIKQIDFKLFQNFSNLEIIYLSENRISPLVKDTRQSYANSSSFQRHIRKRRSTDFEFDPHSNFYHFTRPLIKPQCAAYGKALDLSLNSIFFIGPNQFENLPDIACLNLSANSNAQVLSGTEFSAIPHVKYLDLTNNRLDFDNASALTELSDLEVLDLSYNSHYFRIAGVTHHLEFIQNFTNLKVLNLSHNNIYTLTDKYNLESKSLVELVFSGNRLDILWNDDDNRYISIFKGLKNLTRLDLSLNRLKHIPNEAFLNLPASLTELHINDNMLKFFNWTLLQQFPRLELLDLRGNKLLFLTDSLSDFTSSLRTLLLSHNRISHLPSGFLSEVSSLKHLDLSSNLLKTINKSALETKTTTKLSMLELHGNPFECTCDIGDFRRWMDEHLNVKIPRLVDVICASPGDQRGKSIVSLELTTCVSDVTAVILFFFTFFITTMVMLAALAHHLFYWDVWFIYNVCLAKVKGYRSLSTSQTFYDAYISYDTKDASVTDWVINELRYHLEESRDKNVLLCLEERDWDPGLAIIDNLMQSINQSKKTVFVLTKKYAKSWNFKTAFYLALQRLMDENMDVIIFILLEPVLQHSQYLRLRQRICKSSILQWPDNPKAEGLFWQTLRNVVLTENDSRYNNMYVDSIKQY
Recorded Endpoint: pKd
Answers are plain numbers, as −log10 of the molar value.

INPUT: GET /values?readout=pKd&system=Toll-like receptor 8 (Homo sapiens, UniProt Q9NR97)&item= `CSc1nnc(CCCO)n1-c1cc(C)c(C)c(C)c1`
OUTPUT: 6.65
